Source of measurements: patent US20160185837A1

Target: human GLP-1 receptor (human, UniProt P43220 24-463)
Assay: cell-based or functional assay
Property: cAMP EC50 (nM)
Answer with a number only, understood to be in nM.

Binder: IP267 (Fc fusion) YSEGTFTSDYSKLLEEEHVRLFIEWLVKGPGGGGGSGGGGSGGGGSGGGGSATHTCPPC
cAMP EC50 [nM]: 1.5

Binder: IP280 (Fc fusion) YSEGTFTSDYSKLLEEEAVRLFIEWLVKGGPSSGAPPPSGGGGGSGGGGSGGGGSGGGGSATHTCPPC
cAMP EC50 [nM]: 0.077

Binder: IP323 (Fc fusion) YSEGTFTSDYSKLLEEEAVRLFIEWLVKGPGGGGGSGGGGSGGGGSGGGGSGGGGSGGGGSA
cAMP EC50 [nM]: 0.2

Binder: IP244 (Fc fusion) YSEGTFTSDVSKLLEEEAVRLFIEWLLAGAPPGGSGSTASSGSGSATGGGGAATHTCPPCPAPEF
cAMP EC50 [nM]: 0.18

Alright, here's another binder for you.
Just so you know, measured cAMP EC50 for IP382 (Fc fusion) YSEGTFTSLYSKLLEEEAVRLFIEYLLAGGGGGGSGGGGSGGGGSGGGGSATHTCPPC came out at 1.5
